Assay: In vitro stability in rat liver S9 fraction with NADPH-regenerating system
Assay type: in vitro ADME
Conditions: male, Wistar, rat, liver S9 fraction, pH 7.4, half-life in rat liver S9 fraction, in vitro oxidative metabolism

{"MOL_SMILES": "NC(=O)c1cccc(-c2cccc(OC(=O)NC3CCCCC3)c2)c1", "half-life at 1 μM": "~1 h"}

---

Experiment: In vitro stability in rat liver S9 fraction with NADPH-regenerating system
Type: in vitro ADME
Details: hydrolysis constant in rat liver S9 fraction
Quick rule: log kS9 of at least -0.9 means yes, below that means no.

{"MOL_SMILES": "O=C(NC1CCCCC1)Oc1cccc(-c2ccccc2)c1", "ANSWER_LABEL": "no"}
{"MOL_SMILES": "O=C(NC1CCCCC1)Oc1ccc2ccccc2c1", "ANSWER_LABEL": "yes"}
{"MOL_SMILES": "NC(=O)c1cccc(-c2cccc(OC(=O)NC3CCCCC3)c2)c1", "ANSWER_LABEL": "no"}
{"MOL_SMILES": "O=C(NC1CCCCC1)Oc1ccc(-c2ccccc2)cc1", "ANSWER_LABEL": "no"}
{"MOL_SMILES": "CCCCNC(=O)Oc1ccc(OCc2ccccc2)cc1", "ANSWER_LABEL": "no"}
